These measurements were taken from the supplement of paper PMC13380429.

Here, each record is paired with measured cell viability data.
- Test system: Calu-3
- Assay: cell viability relative to DMSO; higher = less toxic
- Condition summary: 72 h; 10000 nM

Smiles string | cell viability / %
CSCC[C@H](NC(=O)[C@H](CC(C)C)NC(=O)[C@@H](Cc1c[nH]c2ccccc12)NC(=O)[C@H](Cc1ccccc1)N(C)C(=O)[C@@H](Cc1c[nH]c2ccccc12)NC(=O)[C@@H](N)CCCNC(=N)N)C(N)=O | 111
CC(=O)OCC1=C(C(=O)O)N2C(=O)[C@@H](NC(=O)Cc3cccs3)[C@H]2SC1 | 106
Cc1cc(CCC[C@H](CC(=O)NO)C(=O)N[C@H](C(=O)N[C@H](C)c2ccccc2)C(C)(C)C)ccc1-c1ccccc1 | 77.5
CNC(=O)c1cccc(-c2ccc3c(N4CCOC[C@@H]4C)nc(N4CCOC[C@@H]4C)nc3n2)c1 | 22.9
OCc1ccc(-c2nn(Cc3ccccc3)c3ccccc23)o1 | 115
CC[C@]1(O)C[C@@H]2CN(CCc3c([nH]c4ccccc34)[C@@](C(=O)OC)(c3cc4c(cc3OC)N(C)[C@H]3[C@@](O)(C(N)=O)[C@H](O)[C@]5(CC)C=CCN6CC[C@]43[C@@H]65)C2)C1 | 45.9

###

- Tested on: U2OS
- Assay: drug sensitivity score (DSS) for viability; higher = more toxic; extreme values may be limits of the assay
- Condition summary: 72 h

Compound | drug sensitivity score
COc1ccc(NS(=O)(=O)c2ccc(I)cc2)cc1N1CCN(C)CC1 | 0
Cc1cncc(CN2CCC(=C3c4ccc(Cl)cc4CCc4cccnc43)CC2)c1 | 0
N[C@@H](Cc1ccc(O)cc1)C(=O)O [plovamer-acetate] | 0
O=C1O[C@H]([C@@H](O)CO)C(O)=C1O | 0
NCCC(O)(P(=O)(O)O)P(=O)(O)O [pamidronate] | 0
C=C1C(=O)O[C@@H]2[C@H]3O[C@]3(C)CC/C=C(\C)CC[C@@H]12 [parthenolide-(alternate-stereo)] | 5.23
COCC[n+]1c2c(n(Cc3cnccn3)c1C)C(=O)c1ccccc1C2=O | 37.2
CCN(C(=O)c1c(O)c2c(Cl)cccc2n(C)c1=O)c1ccccc1 | 0
CSCC[C@H](NC(=O)[C@H](CC(C)C)NC(=O)[C@@H](Cc1c[nH]c2ccccc12)NC(=O)[C@H](Cc1ccccc1)N(C)C(=O)[C@@H](Cc1c[nH]c2ccccc12)NC(=O)[C@@H](N)CCCNC(=N)N)C(N)=O | 0
CC(=O)NCCNc1cc(Cl)nn2c(-c3cccc(S(=O)(=O)N(C)C)c3)c(C)nc12 | 0
[N-]=[N+]=CC(=O)CC[C@H](N)C(=O)O | 0
CC(=O)OCC1=C(C(=O)O)N2C(=O)[C@@H](NC(=O)Cc3cccs3)[C@H]2SC1 | 0
O=C(C=Cc1ccccc1)NC(NC(=S)Nc1ccc(Cl)cc1)C(Cl)(Cl)Cl (stereo not drawn) | 0
Cc1ccc(S(=O)(=O)Cc2nc(-c3ccc(C(=O)NCc4cccnc4)cc3)oc2C)cc1 | 29.7
CNC(=O)c1ccc(C)c(-n2c(C)cc(OCc3ccc(F)cc3F)c(Br)c2=O)c1 | 3.1
O=C(c1c(F)ccc(NS(=O)(=O)N2CC[C@@H](F)C2)c1F)c1c[nH]c2ncc(-c3cnc(C4CC4)nc3)cc12 | 0
CNC(=O)c1cc2c(cn1)[nH]c1ccccc12 | 0
CC(C)(C)CCN1C[C@@H]2[C@@H](CNC(=O)c3cc(Cl)cc(Cl)c3)[C@@H]2C1 | 0
